# target or test system: T1, SNTG1, Q9NSN8
# T1 sequence (Q9NSN8 52-150, limits assumed, looked up): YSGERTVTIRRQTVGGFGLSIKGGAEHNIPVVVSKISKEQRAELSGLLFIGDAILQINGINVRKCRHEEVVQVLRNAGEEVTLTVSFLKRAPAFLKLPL
# assay: holdup assay
# Set-up: key: below the threshold = too weak to quantify, mostly under pKd 3.1 to 4
# test context: plain residues with an end cap or a label only (N-terminal biotin on a linker: ado-ado)
property label: pKd
Give a plain numeric answer without units written out.

{"binder": "KPGKGSETVV [FZD4, Q9ULV1]", "pKd": 3.91}

In the following, a different binder is considered.
The recorded pKd for entry PYSESDDDWC [CACNA1A, O00555] equals 3.66

Source listed as paper PMC9482650.
